System: HOP-62 NSCLC
Assay Notes: NCI tumour cell line growth inhibition, 48 h
Reported values of TGI for individual entries

| Structure Smiles | Target Entity | TGI |
| --- | --- | --- |
| Nc1c(S(=O)(=O)O)cc(S(=O)(=O)O)c2ccc(N=Nc3ccc(/C=C/c4ccc(N=Nc5ccc6c(S(=O)(=O)O)cc(S(=O)(=O)O)c(N)c6c5O)cc4S(=O)(=O)O)c(S(=O)(=O)O)c3)c(O)c12 | HOP-62 NSCLC | > 100 µM |

Entry Clc1cc(Cl)ncn1 — recorded TGI = > 100 µM

Entry NC(=O)CN1C=CCC(C(N)=O)=C1 — recorded TGI = > 100 µM

* * *

Tested on: HCC-2998 colon
Assay Notes: NCI tumour cell line growth inhibition, 48 h
Assay Metric: log10 TGI (log10 of the value in µM)
Note the log scale: values are log10 of TGI expressed in µM.

| Molecule | log10 TGI |
| --- | --- |
| O=C1/C(=C/c2ccc(F)cc2)CN(C(=O)CCN2CCC(=NO)CC2)C/C1=C\c1ccc(F)cc1 | 0.49 |
| CNCCCNc1nc2ccccc2c2c(=O)c3cc(OC)ccc3sc12 | 0.54 |
| CCOC1=C(c2ccccc2)N2CCCCC2O1 (configuration not stated) | 1.11 |
| O=c1[nH]nc(Cc2ccc(Cl)cc2)n1/N=C/c1ccc([N+](=O)[O-])o1 | 0.68 |
| CC/C(Cc1ccccc1)=C(\c1ccc(OCCN2CCCC2)cc1)c1ccc(OC(=O)NCc2ccccc2)cc1 | 0.47 |
| CCCCCCSSC(=S)N(CC)CC | 1.96 |

Attention now shifts to the item below.
Reading of log10 TGI for O=C(N=Nc1ccccc1Cl)NNc1ccccc1Cl with HCC-2998 colon: 1.97

* * *

Reported values of TGI for individual entries
Tested on: KM12 colon
Assay Notes: NCI tumour cell line growth inhibition, 48 h

Here is how some compounds turned out for TGI.
| Compound | Assay Metric | Observed Result |
| --- | --- | --- |
| Cc1ccc(N=C[N-]c2ccc(C)cc2)cc1.Cc1ccc(N=C[N-]c2ccc(C)cc2)cc1.O=C([O-])C(F)(F)F.O=C([O-])C(F)(F)F.[OH3+].[OH3+].[Rh+2].[Rh+2] | TGI | > 100 µM |
| O=[Se](O)O | TGI | > 64.6 µM |
| CCNc1cc2c3c(c1)CCN3CCC2 | TGI | > 10 µM |
| CC1(C)C=C(/C=N/Nc2ccccc2)C(C#N)=C(O)C1(C#N)C#N | TGI | > 100 µM |

Entry CCCc1cc(=O)n2c(C(=O)Nc3ccc(F)cc3)c(C(=O)Nc3ccc(F)cc3)sc2n1 — recorded TGI = > 160 µM

Entry Clc1cc(Cl)ncn1 — recorded TGI = > 100 µM

Entry CN1Cc2ccccc2/C=C\c2ccccc21 — recorded TGI = > 100 µM

Entry O=C1/C(=C/c2cccc3ccccc23)CCc2ccc([N+](=O)[O-])cc21 — recorded TGI = > 100 µM

* * *

Test system: OVCAR-4 ovarian
Assay Notes: NCI tumour cell line growth inhibition, 48 h
Assay Metric: TGI

Here is how some compounds turned out for TGI.
| Compound | Target Entity | Observed Result |
| --- | --- | --- |
| O=[N+]([O-])c1ccc(Cl)c(CNc2ncnc3c2ncn3C2CCCCO2)c1 (configuration not stated) | OVCAR-4 ovarian | > 100 µM |
| COC(=O)Nc1nc2ccc(NC(=O)c3ccc(I)cc3)cc2[nH]1 | OVCAR-4 ovarian | > 100 µM |
| O=c1[nH]c(=O)n(C2OC(CO)C(O)C2O)cc1OCCCc1ccccc1 (configuration not stated) | OVCAR-4 ovarian | > 100 µM |
| C[C@H](C1CC2(C)OC2(C)C(=O)O1)[C@H]1CC[C@H]2[C@@H]3[C@@H]4O[C@@H]4[C@@]4(O)CC=CC(=O)[C@]4(C)[C@H]3CC[C@]12C (some centres not stated) | OVCAR-4 ovarian | > 50 µM |
| C/C(CN1C(=O)c2ccccc2C1=O)=N\NS(=O)(=O)c1cccc(C(=O)O)c1 | OVCAR-4 ovarian | > 100 µM |

Entry CCOC(=O)/C(=C/c1cccc(Cl)c1)N(CC)CC — recorded TGI = > 100 µM

Entry N/C(=N\N=C\c1ncccc1O)NO — recorded TGI = > 100 µM

Entry NC(=O)CN1C=CCC(C(N)=O)=C1 — recorded TGI = > 100 µM

Entry Nc1nc2c(C(=O)NCc3cccs3)nnn2c2cccc(Cl)c12 — recorded TGI = > 100 µM

Entry Cn1cc(C2=C(c3c[nH]c4ccccc34)C(=O)NC2=O)c2ccccc21 — recorded TGI = > 25 µM

Entry C#CCOC(=O)c1ccc(OC(C)=O)cc1 — recorded TGI = > 100 µM

Entry O=C(OCc1ccccc1)N1CCNCCNCCN(C(=O)OCc2ccccc2)CCNCC1 — recorded TGI = > 100 µM
